Hello, the source for this data is patent US20060089395A1, in case you need it.

Inhibitory Ratio of NF-κ B Activation(%) Drug Concentration 10 μg/mL values by entry
System: NF-κ B
test protocol: Inhibitory activity of NF-κ B activation, luciferase reporter assay in HepG2 under TNF-α stimulation
Assay type: cell-based, human
test parameters: 10 μg/mL; HepG2, TNF-α (40 ng/ml), 4 hours
Just the number in %, nothing appended.

Reference set, count: 10
O=C(Nc1cc(C(F)(F)F)cc(C(F)(F)F)c1)c1c(O)c(Cl)cc(Cl)c1Cl; 97.2
O=C(O)Cc1sc(NC(=O)c2cc(Br)ccc2O)nc1-c1ccccc1; 72.1
O=C(Nc1cc(C(F)(F)F)cc(C(F)(F)F)c1)c1cc(F)ccc1O; 94.3
COc1ccc(OC)c(NC(=O)c2cc(Cl)ccc2O)c1; 96.8
O=C(Nc1nc(C(F)(F)F)c(-c2ccccc2)s1)c1cc(Br)ccc1O; 89.4
N#Cc1ccc(Oc2ccc(C(F)(F)F)cc2NC(=O)c2cc(Cl)ccc2O)cc1; 96.3
O=C(Nc1cc(C(F)(F)F)cc(C(F)(F)F)c1)c1cccc(O)c1O; 91.9
O=C(Nc1nc(-c2ccccc2)c(-c2ccccc2)o1)c1cc(Br)ccc1O; 81.8
O=C(Nc1cc(C(F)(F)F)ccc1N1CCC(C(F)(F)F)CC1)c1cc(Cl)ccc1O; 95.7
CC(=O)Oc1ccc(Cl)cc1C(=O)Nc1cc(C(F)(F)F)ccc1C(F)(F)F; 96.8

Consider the record given below.
Sure, the documented Inhibitory Ratio of NF-κ B Activation(%) Drug Concentration 10 μg/mL for CC(O)c1ccc(O)c(C(=O)Nc2cc(C(F)(F)F)cc(C(F)(F)F)c2)c1 (centres unmarked) is 96.0

* * *

Test system: NF-κ B
test protocol: Inhibitory activity of NF-κ B activation, luciferase reporter assay in HepG2 under TNF-α stimulation
Format: cell-based, human
test parameters: Homo sapiens; 10 μg/mL; HepG2, TNF-α (40 ng/ml), 4 hours; read-out: Inhibitory Ratio of NF-κ B Activation(%) Drug Concentration 10 μg/mL
inhibition at 10 µg/mL values by entry
Just the number in %, nothing appended.

CC(C)C(=O)c1ccc(O)c(C(=O)Nc2cc(C(F)(F)F)cc(C(F)(F)F)c2)c1; 98.7
O=C(Nc1cc(C(F)(F)F)ccc1C(F)(F)F)c1cc(Cl)ccc1O; 96.3
CN1CCN(c2sc(NC(=O)c3cc(Br)ccc3O)nc2C(C)(C)C)CC1; 89.6
N#Cc1ccc(O)c(C(=O)Nc2cc(C(F)(F)F)cc(C(F)(F)F)c2)c1; 99.6
O=C(Nc1nc(-c2cc(C(F)(F)F)cc(C(F)(F)F)c2)cs1)c1cc(Cl)ccc1O; 94.5
CC(=O)c1ccc(O)c(C(=O)Nc2cc(C(F)(F)F)cc(C(F)(F)F)c2)c1; 99.2
CCc1sc(NC(=O)c2cc(Br)ccc2O)nc1C(C)(C)C; 98.1
CC(=O)Oc1ccccc1C(=O)Nc1cc(C(F)(F)F)cc(C(F)(F)F)c1; 97.1

Sure, the documented inhibition at 10 µg/mL for "N#CC(C#N)=Cc1ccc(O)c(C(=O)Nc2cc(C(F)(F)F)cc(C(F)(F)F)c2)c1" is 99.4

Sure, the documented inhibition at 10 µg/mL for "COc1ccc(C(C)(C)C)cc1NC(=O)c1cc(Cl)ccc1O" is 99.2

Sure, the documented inhibition at 10 µg/mL for "CC(C)(C)c1nc(NC(=O)c2cc(Br)ccc2O)sc1N1CCCCC1" is 97.8

Sure, the documented inhibition at 10 µg/mL for "CC(=O)Oc1ccccc1C(=O)Nc1cc(Cl)cc(Cl)c1" is 97.5

Sure, the documented inhibition at 10 µg/mL for "O=C(Nc1nnc(C(F)(F)F)s1)c1ccccc1O" is 81.9

Sure, the documented inhibition at 10 µg/mL for "O=C(Nc1nc(-c2ccco2)c(-c2ccco2)o1)c1cc(Br)ccc1O" is 56

Sure, the documented inhibition at 10 µg/mL for "CN(C)C(=O)c1ccc(O)c(C(=O)Nc2cc(C(F)(F)F)cc(C(F)(F)F)c2)c1" is 87.1

Sure, the documented inhibition at 10 µg/mL for "CCOC(=O)c1sc(NC(=O)c2cc(Br)ccc2O)nc1-c1c(F)c(F)c(F)c(F)c1F" is 96

Sure, the documented inhibition at 10 µg/mL for "Cc1cccc(C(=O)Nc2cc(C(F)(F)F)cc(C(F)(F)F)c2)c1O" is 95

Sure, the documented inhibition at 10 µg/mL for "COC(=O)c1ccc(O)c(C(=O)Nc2cc(C(F)(F)F)cc(C(F)(F)F)c2)c1" is 96.4

Sure, the documented inhibition at 10 µg/mL for "O=C(Nc1cc(C(F)(F)F)cc(C(F)(F)F)c1)c1cc(-c2ccccn2)ccc1O" is 99

* * *

Tested on: NF-κ B
test protocol: Inhibitory activity of NF-κ B activation, luciferase reporter assay in HepG2 under TNF-α stimulation
Format: cell-based, human
test parameters: 1 μg/mL; HepG2, TNF-α (40 ng/ml), 4 hours
measurement type: Inhibitory Ratio of NF-κ B Activation(%) Drug Concentration 1 μg/mL
Just the number in %, nothing appended.

Reference set, count: 4
O=C(Nc1cc(C(F)(F)F)ccc1N1CCOCC1)c1cc(Br)ccc1O; 81.8
O=C(Nc1cc(C(F)(F)F)ccc1N1CCOCC1)c1cc(Cl)ccc1O; 92.3
O=C(Nc1cc(C(F)(F)F)cc(C(F)(F)F)c1)c1ccc2ccccc2c1O; 89.6
CCOC(=O)c1c(NC(=O)c2cc(Cl)ccc2O)sc2c1CCCC2; 88.2

Sure, the documented Inhibitory Ratio of NF-κ B Activation(%) Drug Concentration 1 μg/mL for "CC(C)(C)c1ccc(C(C)(C)C)c(NC(=O)c2cc(Cl)ccc2O)c1" is 89.1

Sure, the documented Inhibitory Ratio of NF-κ B Activation(%) Drug Concentration 1 μg/mL for "O=C(Nc1cc(C(F)(F)F)ccc1Cl)c1cc(Br)ccc1O" is 88.9

* * *

Inhibitory Ratio of NF-κ B Activation(%) Drug Concentration 1 μg/mL values by entry
Test system: NF-κ B
test protocol: Inhibitory activity of NF-κ B activation, luciferase reporter assay in HepG2 under TNF-α stimulation
Type: cell-based, human
test parameters: 1 μg/mL; HepG2, TNF-α (40 ng/ml), 4 hours

O=C(Nc1cc(C(F)(F)F)ccc1OCC(F)(F)F)c1cc(Cl)ccc1O [Compound No. 113]; 90.5%
O=C(Nc1cc(Cl)cc(Cl)c1)c1c(O)ccc2ccccc12 [Compound No. 182]; 85.3%
COc1ccc(C(C)(C)C)cc1NC(=O)c1cc(Cl)ccc1OC(C)=O [Compound No. 136]; 91.0%

Item Cc1ccc(O)c(C(=O)Nc2cc(C(F)(F)F)cc(C(F)(F)F)c2)c1 [compound 10] was tested on NF-κ B; the reported Inhibitory Ratio of NF-κ B Activation(%) Drug Concentration 1 μg/mL is 95.8%

Item Cc1ccc(C(C)C)cc1NC(=O)c1cc(Cl)ccc1O [Compound No. 151] was tested on NF-κ B; the reported Inhibitory Ratio of NF-κ B Activation(%) Drug Concentration 1 μg/mL is 85.8%

Item O=C(Nc1nc(C(F)(F)F)c(-c2ccccc2)s1)c1cc(Br)ccc1O [Compound No. 213] was tested on NF-κ B; the reported Inhibitory Ratio of NF-κ B Activation(%) Drug Concentration 1 μg/mL is 85.1%

Item Cc1ccc(C(=O)C(C)(C)C)cc1NC(=O)c1cc(Cl)ccc1O [compound 166] was tested on NF-κ B; the reported Inhibitory Ratio of NF-κ B Activation(%) Drug Concentration 1 μg/mL is 94.1%

Item O=C(Nc1cc(Cl)cc(Cl)c1)c1cc(I)ccc1O [Compound No. 127] was tested on NF-κ B; the reported Inhibitory Ratio of NF-κ B Activation(%) Drug Concentration 1 μg/mL is 85.4%

Item O=C(Nc1cc(C(F)(F)F)cc(C(F)(F)F)c1)c1cc(Cl)cnc1O [Compound No. 75] was tested on NF-κ B; the reported Inhibitory Ratio of NF-κ B Activation(%) Drug Concentration 1 μg/mL is 58.1%

* * *

Tested on: NF-κ B
test protocol: Inhibitory activity of NF-κ B activation, luciferase reporter assay in HepG2 under TNF-α stimulation
Assay type: cell-based, human
test parameters: 10 μg/mL; HepG2, TNF-α (40 ng/ml), 4 hours
measurement type: Inhibitory Ratio of NF-κ B Activation(%) Drug Concentration 10 μg/mL
Just the number in %, nothing appended.

Cc1ccc(-c2ccccc2)cc1NC(=O)c1cc(Cl)ccc1O [Compound No. 172]; 96.4
Cc1ccc(O)c(C(=O)Nc2cc(Cl)cc(Cl)c2)c1 [Compound No. 131]; 88.7
CCN(CC)S(=O)(=O)c1ccc(OC)c(NC(=O)c2cc(Cl)ccc2O)c1 [Compound No. 155]; 90.2
CC(C)(C)c1cc(C(=O)Nc2cc(C(F)(F)F)cc(C(F)(F)F)c2)c(O)c(C(C)(C)C)c1 [Compound No. 62]; 86.9
Cc1ccc(C(C)C)cc1NC(=O)c1cc(Cl)ccc1O [Compound No. 151]; 98.2
O=C(Nc1cc(C(F)(F)F)ccc1Oc1ccc(Cl)cc1)c1cc(Cl)ccc1O [Compound No. 118]; 99.5
Cc1ccc(O)c(C(=O)Nc2cc(C(C)(C)C)cc(C(C)(C)C)c2)c1 [Compound No. 147]; 91.0
CCOC(=O)c1c(NC(=O)c2cc(Cl)ccc2O)sc2c1CCCC2 [Compound No. 232]; 85.4

Sure, the documented Inhibitory Ratio of NF-κ B Activation(%) Drug Concentration 10 μg/mL for COc1ccc(O)c(C(=O)Nc2cc(C(F)(F)F)cc(C(F)(F)F)c2)c1 [Compound No. 33] is 97.0

Sure, the documented Inhibitory Ratio of NF-κ B Activation(%) Drug Concentration 10 μg/mL for O=C(Nc1cc(C(F)(F)F)ccc1Cl)c1cc(Br)ccc1O [Compound No. 90] is 94.1

Sure, the documented Inhibitory Ratio of NF-κ B Activation(%) Drug Concentration 10 μg/mL for O=C(Nc1cc(F)cc(F)c1)c1cc(Cl)ccc1O [Compound No. 180] is 93.7

Sure, the documented Inhibitory Ratio of NF-κ B Activation(%) Drug Concentration 10 μg/mL for COc1ccc(C(F)(F)F)cc1NC(=O)c1cc(Br)ccc1O [Compound No. 94] is 93.4

Sure, the documented Inhibitory Ratio of NF-κ B Activation(%) Drug Concentration 10 μg/mL for CCOC(=O)c1sc(NC(=O)c2cc(-n3cccc3)ccc2O)nc1-c1ccccc1 [Compound No. 229] is 90.1

Sure, the documented Inhibitory Ratio of NF-κ B Activation(%) Drug Concentration 10 μg/mL for CC(C)CCOc1ccc(OCCC(C)C)c(NC(=O)c2cc(Cl)ccc2O)c1 [Compound No. 162] is 97.9

Sure, the documented Inhibitory Ratio of NF-κ B Activation(%) Drug Concentration 10 μg/mL for O=C(Nc1nc(C(F)(F)F)c(Br)s1)c1cc(Br)ccc1O [Compound No. 187] is 94.4

Sure, the documented Inhibitory Ratio of NF-κ B Activation(%) Drug Concentration 10 μg/mL for CC(C)(C)c1cc(NC(=O)c2cc(Br)ccc2O)cc(C(C)(C)C)c1 [Compound No. 140] is 82.0

Sure, the documented Inhibitory Ratio of NF-κ B Activation(%) Drug Concentration 10 μg/mL for COc1ccc(C)cc1NC(=O)c1cc(Cl)ccc1O [Compound No. 178] is 89.7

Sure, the documented Inhibitory Ratio of NF-κ B Activation(%) Drug Concentration 10 μg/mL for CC(=O)Nc1cc(O)c(C(=O)Nc2cc(C(F)(F)F)cc(C(F)(F)F)c2)cc1Cl [Compound No. 50] is 96.0

Sure, the documented Inhibitory Ratio of NF-κ B Activation(%) Drug Concentration 10 μg/mL for COc1ccc(-c2ccccc2)cc1NC(=O)c1cc(Cl)ccc1O [Compound No. 141] is 97.9

Sure, the documented Inhibitory Ratio of NF-κ B Activation(%) Drug Concentration 10 μg/mL for O=C(Nc1cc(C(F)(F)F)cc(C(F)(F)F)c1)c1cc(N=Nc2ccc([N+](=O)[O-])cc2)ccc1O [Compound No. 48] is 98.7

Sure, the documented Inhibitory Ratio of NF-κ B Activation(%) Drug Concentration 10 μg/mL for C#Cc1ccc(O)c(C(=O)Nc2cc(C(F)(F)F)cc(C(F)(F)F)c2)c1 [Compound No. 21] is 90.1

Sure, the documented Inhibitory Ratio of NF-κ B Activation(%) Drug Concentration 10 μg/mL for CC(C)(C)c1cc(NC(=O)c2cc([N+](=O)[O-])ccc2O)cc(C(C)(C)C)c1 [Compound No. 146] is 98.5

Sure, the documented Inhibitory Ratio of NF-κ B Activation(%) Drug Concentration 10 μg/mL for CCOc1ccc(OCC)c(NC(=O)c2cc(Cl)ccc2O)c1 [Compound No. 152] is 95.3

Sure, the documented Inhibitory Ratio of NF-κ B Activation(%) Drug Concentration 10 μg/mL for COc1ccc(OC)c(NC(=O)c2cc(Br)ccc2O)c1 [Compound No. 142] is 95.7

Sure, the documented Inhibitory Ratio of NF-κ B Activation(%) Drug Concentration 10 μg/mL for CN(C)c1ccc(O)c(C(=O)Nc2cc(C(F)(F)F)cc(C(F)(F)F)c2)c1 [Compound No. 44] is 67.5
